Value source: paper PMC6968488

- Protocol notes: Pharmacokinetic study after oral administration
- Type: in vivo
- Condition notes: male, rat, plasma, SD rats, 25 mg/kg

Compound | half-life [h]
COc1ccc(C2CC(=O)c3c(O)cc(OC4OC(COC5OC(C)C(O)C(O)C5O)C(O)C(O)C4O)cc3O2)cc1 (stereo not drawn) [didymin, isosakuranetin-7-beta-rutinoside] | 1.75

* * *

- Protocol notes: MTT cytotoxicity assay on healthy cells
- Type: cell-based
- Condition notes: rat, H9C2 cells; H9C2, 48 h, all tested concentrations 10 μM∼200 μM; read-out: cell viability
Readout kind: viability at 48 h

Molecule | Readout kind | Reading
COc1ccc(C2CC(=O)c3c(O)cc(OC4OC(COC5OC(C)C(O)C(O)C5O)C(O)C(O)C4O)cc3O2)cc1 (stereo not drawn) [didymin, isosakuranetin-7-beta-rutinoside] | viability at 48 h | > 90%

* * *

- Protocol notes: Solubility study of didymin in different media (HPLC)
- Type: physicochemical
- Condition notes: organic solvent or mixture, thermodynamic from solid; ethanol, room temperature, 72 h stirring; read-out: solubility in ethanol

Compound | Unit text | solubility at 72 h
COc1ccc(C2CC(=O)c3c(O)cc(OC4OC(COC5OC(C)C(O)C(O)C5O)C(O)C(O)C4O)cc3O2)cc1 (stereo not drawn) [didymin, isosakuranetin-7-beta-rutinoside] | µg/mL | 1240

* * *

- Protocol notes: Pharmacokinetic study after oral administration
- Type: in vivo
- Condition notes: male, rat, plasma, SD rats, 25 mg/kg, read-out: AUC0–12 h

Molecule | AUC(0-t), ng·h/mL
COc1ccc(C2CC(=O)c3c(O)cc(OC4OC(COC5OC(C)C(O)C(O)C5O)C(O)C(O)C4O)cc3O2)cc1 (stereo not drawn) [didymin, isosakuranetin-7-beta-rutinoside] | 5910
